Source of measurements: patent US20110086770A1

Target: T1, recombinant human IL-23R/Fc chimera (R&D Systems) (human, UniProt Q5VWK5 24-353)
T1 construct: bought; also called human IL-23R/Fc fusion protein; rhIL23RFc
T1 sequence (looked up): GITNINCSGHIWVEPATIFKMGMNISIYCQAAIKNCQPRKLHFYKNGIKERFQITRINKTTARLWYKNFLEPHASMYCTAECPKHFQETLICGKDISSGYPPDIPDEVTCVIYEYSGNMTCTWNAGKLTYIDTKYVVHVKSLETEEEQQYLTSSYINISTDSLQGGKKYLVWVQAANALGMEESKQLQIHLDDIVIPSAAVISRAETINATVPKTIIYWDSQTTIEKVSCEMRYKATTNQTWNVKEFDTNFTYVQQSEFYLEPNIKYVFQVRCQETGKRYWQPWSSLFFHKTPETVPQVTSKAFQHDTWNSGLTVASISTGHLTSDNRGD
Test: competition ELISA against IL-23

BINDER	Ratio IC50 to 056-53.H4E IC50 [ratio]
105-20-1H7 ATRIMER (designed binder) EPPTQKPKKIVNAKKDVVNTKMFEELKSRLDTLAQEVALLKEQQALQTVCLKGTKVHMKCFLAFTQTKTFHEASEDCISRGGTLSTPQTGSENDALYEYLRQSVGNEAEIWLGLNGSAGTNTWVDMTGARIAYKNWETEITAQPDGGFGYFGENCAVLSGAANGKWFDKRCRDQLPYICQFGIV	2.1
105-08-2C9 ATRIMER (designed binder, not shown: C-terminal tag: His/Myc (pANA4) or HA-StrepII (pANA10)) EPPTQKPKKIVNAKKDVVNTKMFEELKSRLDTLAQEVALLKEQQALQTVCLKGTKVHMKCFLAFTQTKTFHEASEDCISRGGTLSTPQTGSENDALYEYLRQSVGNEAEIWLGLNGSTLTNTWVDMTGARIAYKNWETEITAQPDGGWGYFGENCAVLSGAANGKWFDKRCRDQLPYICQFGIV	5.3
101-80-5E8 ATRIMER (designed binder) EPPTQKPKKIVNAKKDVVNTKMFEELKSRLDTLAQEVALLKEQQALQTVCLKGTKVHMKCFLAFTQTKTFHEASEDCISRGGTLSTPQTGSENDALYEYLRQSVGNEAEIWLGLNGSALTNTWVDMTGARIAYKNWEPPEPLHPMGGFGVFGENCAVLSGAANGKWFDKRCRDQLPYICQFGIV	0.6
